- Organism: Rattus norvegicus
- assay name: DrugMatrix - Regimen: Daily Repeat
- Format: toxicity, organism-based, Sprague-Dawley
- Parameters: regimen Daily Repeat, gender Male, age 6-8 weeks
- assay setup: in vivo, po, 0 mg/kg, 72 h, tissue Plasma, route oral GAVAGE, dose level Control, time 3 day, […]
readout name: CREATINE PHOSPHOKINASE

molecule: CCCCCCCCCc1ccc(O)cc1
observed: 292.5 u/L
//
molecule: COCc1c(C(C)C)nc(C(C)C)c(/C=C/[C@@H](O)C[C@@H](O)CC(=O)O)c1-c1ccc(F)cc1
observed: 292.5 u/L
//
molecule: CCCC[C@@H](CC)COC(=O)c1ccccc1C(=O)OC[C@@H](CC)CCCC [BIS(2-ETHYLHEXYL)PHTHALATE]
observed: 284.33 u/L
//
molecule: C=CCN
observed: 372.67 u/L
//
molecule: COc1ccc2c(c1)c(CC(=O)OCC(=O)O)c(C)n2C(=O)c1ccc(Cl)cc1
observed: 398 u/L
//
molecule: COC1=CC(=O)C[C@@H](C)[C@]12Oc1c(Cl)c(OC)cc(OC)c1C2=O
observed: 729.17 u/L
//
molecule: Cn1cnc([N+](=O)[O-])c1Sc1ncnc2nc[nH]c12
observed: 279.67 u/L

---

Reported PHOSPHORUS values follow for various molecules
- Species: Rattus norvegicus
- assay name: DrugMatrix - Regimen: Daily Repeat
- Type: toxicity, organism-based, Sprague-Dawley
- Set-up: regimen Daily Repeat, gender Male, age 6-8 weeks
- assay setup: in vivo, po, 0 mg/kg, 72 h, tissue Plasma, route oral GAVAGE, dose level Control, time 3 day, vehicle .5 % CMC

molecule: CC1(C)[C@H]2CC[C@]1(C)C(=O)C2 [(-)-CAMPHOR]
unit symbol: mg/dL
PHOSPHORUS: 12.25

molecule: CN1CCC[C@@H]1CCO[C@](C)(c1ccccc1)c1ccc(Cl)cc1
unit symbol: mg/dL
PHOSPHORUS: 11.57

molecule: CCC[C@@H]1C[C@@H](C(=O)N[C@@H]([C@H]2O[C@H](SC)[C@H](O)[C@@H](O)[C@H]2O)[C@@H](C)O)N(C)C1
unit symbol: mg/dL
PHOSPHORUS: 11.67

molecule: O=c1[nH]cc(F)c(=O)[nH]1
unit symbol: mg/dL
PHOSPHORUS: 12.1

molecule: CC[C@H]1OC(=O)[C@H](C)[C@@H](O[C@H]2C[C@@](C)(OC)[C@@H](O)[C@H](C)O2)[C@H](C)[C@@H](O[C@@H]2O[C@H](C)C[C@H](N(C)C)[C@H]2O)[C@](C)(O)C[C@@H](C)/C(=N\OCOCCOC)[C@H](C)[C@@H](O)[C@]1(C)O
unit symbol: mg/dL
PHOSPHORUS: 11.23

molecule: COC(=O)c1ccc(O)cc1
unit symbol: mg/dL
PHOSPHORUS: 12.4

molecule: CCOC(=O)OC(C)OC1=C(C(=O)Nc2ccccn2)N(C)S(=O)(=O)c2ccccc21 (stereo not drawn)
unit symbol: mg/dL
PHOSPHORUS: 12.07

molecule: C=C1CC[C@H](O)C/C1=C/C=C1\CCC[C@]2(C)[C@@H]([C@H](C)/C=C/[C@H](C)C(C)C)CC[C@@H]12
unit symbol: mg/dL
PHOSPHORUS: 12.68

molecule: CN1C(C(=O)Nc2ccccn2)=C(O)c2ccccc2S1(=O)=O
unit symbol: mg/dL
PHOSPHORUS: 11.68

molecule: CCc1cccc2c3c([nH]c12)C(CC)(CC(=O)O)OCC3 (stereo not drawn)
unit symbol: mg/dL
PHOSPHORUS: 11.23

molecule: Cc1c(-c2ccccc2)oc2c(C(=O)OCCN3CCCCC3)cccc2c1=O [FLAVOXATE]
unit symbol: mg/dL
PHOSPHORUS: 11.97

molecule: COc1c(C)c2c(c(O)c1C/C=C(\C)CCC(=O)OCCN1CCOCC1)C(=O)OC2 [MYCOPHENOLATE MOFETIL]
unit symbol: mg/dL
PHOSPHORUS: 11.57

molecule: CC(C)[C@H](N)C(=O)OCCOCn1cnc2c(=O)[nH]c(N)nc21
unit symbol: mg/dL
PHOSPHORUS: 11.23
